Cited source: patent EP4796538A1

system tested: RET-CCDC6 (PTC1) (Homo sapiens)
Construct: purchased Reaction Biology Corp
Sequence (P07949 whole entry, looked up): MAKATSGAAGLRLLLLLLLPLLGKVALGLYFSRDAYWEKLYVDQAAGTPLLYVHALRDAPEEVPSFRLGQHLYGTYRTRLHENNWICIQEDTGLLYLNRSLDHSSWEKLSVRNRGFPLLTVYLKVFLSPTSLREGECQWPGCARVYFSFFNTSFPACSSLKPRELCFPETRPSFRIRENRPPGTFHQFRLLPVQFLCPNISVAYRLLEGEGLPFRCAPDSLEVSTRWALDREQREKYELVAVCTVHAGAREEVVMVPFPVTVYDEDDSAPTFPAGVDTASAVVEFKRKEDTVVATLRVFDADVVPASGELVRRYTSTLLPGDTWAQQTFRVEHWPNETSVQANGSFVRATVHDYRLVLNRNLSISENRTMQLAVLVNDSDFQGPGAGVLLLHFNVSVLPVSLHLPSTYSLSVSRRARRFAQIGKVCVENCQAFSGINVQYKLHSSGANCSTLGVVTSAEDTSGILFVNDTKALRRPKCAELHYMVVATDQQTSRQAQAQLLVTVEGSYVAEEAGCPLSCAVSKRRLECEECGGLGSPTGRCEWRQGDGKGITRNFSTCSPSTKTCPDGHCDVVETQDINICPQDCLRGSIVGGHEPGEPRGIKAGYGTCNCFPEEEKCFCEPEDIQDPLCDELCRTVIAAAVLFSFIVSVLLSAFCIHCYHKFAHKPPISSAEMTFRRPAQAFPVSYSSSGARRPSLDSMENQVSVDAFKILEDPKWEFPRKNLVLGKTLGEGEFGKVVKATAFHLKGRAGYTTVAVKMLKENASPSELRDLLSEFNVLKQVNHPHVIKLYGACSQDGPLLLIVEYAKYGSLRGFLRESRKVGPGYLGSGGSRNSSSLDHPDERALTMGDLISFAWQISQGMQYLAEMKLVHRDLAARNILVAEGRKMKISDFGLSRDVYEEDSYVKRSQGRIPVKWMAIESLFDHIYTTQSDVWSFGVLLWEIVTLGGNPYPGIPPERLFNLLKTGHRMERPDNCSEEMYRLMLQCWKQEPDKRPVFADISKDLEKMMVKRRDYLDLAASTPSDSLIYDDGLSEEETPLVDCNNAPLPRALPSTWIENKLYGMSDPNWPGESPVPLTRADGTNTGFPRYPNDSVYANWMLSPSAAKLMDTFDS
run description: Kinase panel inhibition, radiolabeled [γ-33P] ATP (Reaction Biology Corp)
Type: biochemical
measurement context: compound at 10 uM; ATP 1 µM; Data 1; read-out: % Enzyme Activity (relative to DMSO controls) RET-CCDC6 (PTC1) Data 1
Measured remaining activity at 10 µM accompanies every entry in the list below.

mol | remaining activity at 10 µM [%]
CC(C)Nc1cc(-c2ccc(N3CC[C@H](NC(=O)c4ccccc4F)C3)nc2)c2nccnc2c1 | 1.04
Nc1cc(-c2cnc(N3CC[C@H](NC(=O)c4ccccc4F)C3)nc2)c2nccnc2c1 | 1.19
CNc1cc(-c2ccc(N3CC[C@H](NC(=O)c4ccccc4F)C3)nc2)c2nccnc2c1 | 1.36
CCCCNc1cc(-c2ccc(N3CC(Oc4cccc(F)c4)C3)nc2)c2nccnc2c1 | 1.05
Nc1cc(-c2cnc(N3CC(Oc4cccc(F)c4)C3)nc2)c2nccnc2c1 | 1.22
CCCNc1cc(-c2ccc(N3CC[C@H](NC(=O)c4ccccc4F)C3)nc2)c2nccnc2c1 | 0.91
CCS(=O)(=O)N1CCN(c2ccc(-c3cc(N)cc4nccnc34)cn2)CC1 | 2.9
CCNc1cc(C#CCN2CCOCC2)c2nccnc2c1 | 14.8
Nc1cc(-c2ccc(N3CC[C@H](NC(=O)c4ccccc4F)C3)nc2)c2nccnc2c1 | 1.55
Nc1cc(-c2ccc(N3CCC(N4CCOCC4)CC3)nc2)c2nccnc2c1 | 18.3
Nc1cc(-c2ccc(N3CC(Oc4cccc(F)c4)C3)nc2)c2nccnc2c1 | 0.75
O=C(Nc1cc(-c2ccc(N3CC(Oc4cccc(F)c4)C3)nc2)c2nccnc2c1)c1ccco1 | 2.53

---

system tested: RET(V804M) (Homo sapiens, UniProt P07949, V804M)
Construct: purchased Reaction Biology Corp
Sequence (P07949 29-1114 V804M): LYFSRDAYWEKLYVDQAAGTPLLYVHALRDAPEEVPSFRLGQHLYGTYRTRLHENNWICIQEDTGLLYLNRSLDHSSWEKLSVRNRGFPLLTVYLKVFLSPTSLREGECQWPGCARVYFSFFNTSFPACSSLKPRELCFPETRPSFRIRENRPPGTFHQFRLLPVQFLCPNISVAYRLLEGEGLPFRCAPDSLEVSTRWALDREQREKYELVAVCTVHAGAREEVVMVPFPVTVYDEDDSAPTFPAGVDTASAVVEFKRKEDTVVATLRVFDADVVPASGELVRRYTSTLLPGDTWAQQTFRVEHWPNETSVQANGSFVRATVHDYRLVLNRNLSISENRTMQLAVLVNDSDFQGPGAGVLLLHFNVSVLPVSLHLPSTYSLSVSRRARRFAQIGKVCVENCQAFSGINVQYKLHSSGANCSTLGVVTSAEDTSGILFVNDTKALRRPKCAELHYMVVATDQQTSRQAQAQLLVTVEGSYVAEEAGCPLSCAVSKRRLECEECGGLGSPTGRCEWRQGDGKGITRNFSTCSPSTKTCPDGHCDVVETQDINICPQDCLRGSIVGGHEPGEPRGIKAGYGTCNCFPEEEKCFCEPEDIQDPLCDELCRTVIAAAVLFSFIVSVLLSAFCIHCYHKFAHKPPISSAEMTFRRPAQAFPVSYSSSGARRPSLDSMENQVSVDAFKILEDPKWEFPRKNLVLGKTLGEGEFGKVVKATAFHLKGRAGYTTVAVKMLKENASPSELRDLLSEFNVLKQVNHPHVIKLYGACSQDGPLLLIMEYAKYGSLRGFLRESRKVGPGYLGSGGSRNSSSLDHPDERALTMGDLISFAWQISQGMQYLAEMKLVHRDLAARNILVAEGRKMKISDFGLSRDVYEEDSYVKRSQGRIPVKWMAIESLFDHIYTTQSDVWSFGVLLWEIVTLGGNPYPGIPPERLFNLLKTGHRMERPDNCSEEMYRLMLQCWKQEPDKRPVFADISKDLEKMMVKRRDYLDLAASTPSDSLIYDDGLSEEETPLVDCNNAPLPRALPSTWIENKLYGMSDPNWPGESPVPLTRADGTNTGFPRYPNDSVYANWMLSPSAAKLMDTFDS
run description: Kinase panel inhibition, radiolabeled [γ-33P] ATP (Reaction Biology Corp)
Type: biochemical
measurement context: compound at 1 uM; ATP 10 µM; read-out: % Enzyme Activity (relative to DMSO controls) V804M
Listed below: remaining activity at 1 µM values for each entry.
assay readout: remaining activity at 1 µM (%)

molecule | measured result
CCNc1cc(Br)c2nccnc2c1 [Intermediate Compound 18, 8-Bromo-N-ethylquinoxalin-6-amine] | 68.3
O=[N+]([O-])c1cc(-c2ccc(N3CC(Oc4cccc(F)c4)C3)nc2)c2nccnc2c1 | 62.8
Nc1cc(-c2ccc(N3CC(Oc4cccc(F)c4)C3)nc2)c2nccnc2c1 | 1.72
CCNc1cc(-c2ccc(N3CC(Oc4cccc(F)c4)C3)nc2)c2nccnc2c1 | 0.63
CCNc1cc(-c2ccc(F)nc2)c2nccnc2c1 [Intermediate Compound 6] | 59.3
O=[N+]([O-])c1cc(-c2ccc(F)nc2)c2nccnc2c1 [Intermediate Compound 15] | 94.9
O=C(Nc1cc(-c2ccc(F)nc2)c2nccnc2c1)c1ccco1 [Intermediate Compound 13] | 104

---

Test system: A-549
run description: Cell proliferation inhibition, Cell Counting Kit-8, non-small cell lung cancer cell line
Format: cell-based
measurement context: A-549 cell line; 72 hours incubation; test concentration not given
Reported Cell Proliferation (% of control) values for the following compounds.
assay readout: Cell Proliferation (% of control)

compound | assay readout | measured result
CNc1cc(-c2ccc(N3CC(Oc4cccc(F)c4)C3)nc2)c2nccnc2c1 [Example 2] | Cell Proliferation (% of control) | 18.59%
Nc1cc(-c2ccc(N3CCC(N4CCOCC4)CC3)nc2)c2nccnc2c1 [Example 25] | Cell Proliferation (% of control) | 75.52%
Nc1cc(-c2ccc(N3CCN(c4ccccn4)CC3)nc2)c2nccnc2c1 [Example 23] | Cell Proliferation (% of control) | 78.36%
O=[N+]([O-])c1cc(-c2ccc(N3CC(Oc4cccc(F)c4)C3)nc2)c2nccnc2c1 [Example 27] | Cell Proliferation (% of control) | 94.57%
